# Test system: Glycine max
# ASSAY OVERVIEW: Inhibition of soybean lipoxygenase assessed as conversion of sodium linoleate to 13-hydroperoxylinoleic acid at 100 uM
OBSERVATION TYPE: inhibition (%)
Respond with the bare value in %.

Record excerpt, results attached:
COMPOUND	MEASUREMENT UNIT	inhibition
Cc1ccc2ccc(=O)oc2c1	%	89
Cc1ccc2oc(=O)ccc2c1-n1cccc1	%	55.5
Cc1cc2ccc(=O)oc2cc1N1CC=CC1	%	52.5
Cc1cc2oc(=O)ccc2cc1N1CC=CC1	%	60
Cc1cc(=O)oc2cc(-n3cccc3)ccc12	%	12

Value of measured inhibition for the entry O=c1ccc2ccccc2o1 : 15

Value of measured inhibition for the entry O=c1cc(N2CC=CC2)c2ccccc2o1 : 43

Value of measured inhibition for the entry Cc1cc(=O)oc2cc(N3CC=CC3)ccc12 : 28

Value of measured inhibition for the entry CC(Cc1ccc(O)c(O)c1)C(C)Cc1ccc(O)c(O)c1 (centres undefined) : 84
